Recorded absorption maximum, one value per entry.
# Test Details: solvent given as SMILES
# Conditions: in CCOC(C)=O
Kindly provide the numeric value in nm only, without the unit symbol.

Cn1c(=O)c(/N=N/c2ccc(S(=O)(=O)O)c3ccccc23)c(O)c2ccccc21    464

Query: absorption maximum; subject: CCCCC1(CCCC)c2cc(C#Cc3ccc4ccc5cccc6ccc3c4c56)ccc2-c2ccc(C#Cc3ccc4ccc5cccc6ccc3c4c56)cc21
419

Reported absorption maximum for O=c1oc2ccc(Cl)cc2cc1-c1cc2cc(Cl)ccc2o1 : what is it?
370

Requested read-out: absorption maximum. Entry: Cc1cc(C2(c3cc(C)c(O)c(Br)c3)OS(=O)(=O)c3ccccc32)cc(Br)c1O
395

# get_value(readout='absorption maximum', item= COc1ccc(C#Cc2ccc(C#N)cc2)cc1OC )
326

What measured absorption maximum goes with CCOC(=O)CSc1nc(-c2ccccc2)c(C)c(C#N)c1C#N ?
366
